System: MCF7
Test: Antiproliferative activity against human MCF7 cells assessed as cell viability at 10 uM after 48 hrs by WST-1 assay
Format: functional
Details: MCF7, 48 h, read-out: Activity
Quick list: viability at 10 µM per entry.

compound="COC1=CC(c2ccc[nH]2)=N/C1=C\\NC1CCCc2ccccc21 (stereo not given)" study_system=MCF7 recorded_endpoint="viability at 10 µM" value="< 10%"
compound="CCCC(C)N/C=C1\\N=C(c2ccc[nH]2)C=C1OC (stereo not given)" study_system=MCF7 recorded_endpoint="viability at 10 µM" value="< 20%"
compound="COC1=CC(c2ccc[nH]2)=N/C1=C\\NC1CCc2ccccc21 (stereo not given)" study_system=MCF7 recorded_endpoint="viability at 10 µM" value="< 20%"
compound=COC1=CC(c2ccc[nH]2)=N/C1=C\NCC1CCCCC1 study_system=MCF7 recorded_endpoint="viability at 10 µM" value="< 20%"

Let us examine a further case.
Query: If you can, please state the reported viability at 10 µM value of COC1=CC(c2ccc[nH]2)=N/C1=C\NC1Cc2ccccc2C1 .
Response: < 20%

Cited source for all entries: ChEMBL document CHEMBL1221244
